- target: GDP-KRAS G12D (Homo sapiens, UniProt P01116, G12D)
- Sequence (P01116 1-169 isoform P01116-2 G12D): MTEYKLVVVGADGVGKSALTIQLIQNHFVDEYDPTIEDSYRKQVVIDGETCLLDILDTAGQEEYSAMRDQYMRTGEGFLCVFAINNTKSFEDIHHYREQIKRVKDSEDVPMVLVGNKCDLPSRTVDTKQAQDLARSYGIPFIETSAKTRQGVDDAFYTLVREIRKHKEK
- assay.summary: biochemical
Catalogue of molecules with associated IC50
Give your result in nM as a bare value.

See these solved cases before continuing.
molecule	measurement
C#Cc1c(F)ccc2cc(N)cc(-c3nc4c5c(nc(OC[C@@]67CCCN6C[C@H](F)C7)nc5c3F)N3CCCOCC3N4CCC(F)(F)F)c12 (stereo partly drawn)	9.19
C#Cc1c(F)ccc2cc(N)cc(-c3nc4c5c(nc(OCC6(CN7CCOCC7)CCC6)nc5c3F)N3CCCOCC3N4C)c12 (stereo not drawn)	13.8

Would you kindly share the measured IC50 for C#Cc1c(F)ccc2cc(N)cc(-c3nc4c5c(nc(OC[C@@]67CCCN6C[C@H](F)C7)nc5c3F)N3CCC(F)CCC3N4C)c12 (stereo partly drawn) ?
7.63
